Assignment: determine reported MIC A. baumannii ATCC 19606 for the given compounds.
Test system: Acinetobacter baumannii ATCC 19606
Assay type: cell-based
Details: ATCC 19606
Description: The minimum inhibitory concentration (MIC) was determined by means of dish double dilution method using a Multipoint inoculator according to the CLSI recommended method. […] Agar medium is melted, and then quantitatively injected into the dish containing the drug solution, and mixed. […]
Where a SMILES comes first, the peptide text is derived from it. Bridges are numbered along the chain shown (N, C = ends). [ ]: non-standard residue; d: D form. The star is where a group is joined. dPhe(4-Me) = Cc1ccc(C[C@@H](N)C(=O)O)cc1; Heptanoyl(6-Me) = CC(C)CCCCC(=O)*; X2 = CC[C@H](C)CCCCC(=O)*; Dab = NCC[C@H](N)C(=O)O; X6 = CCCC(=O)CC(=O)*
One number for each entry, in µg/mL.

Below, 2 compounds whose answers are already recorded.
>  <Compound>
CC[C@H](C)CCCCC(=O)N[C@@H](CCN)C(=O)N[C@H](C(=O)N[C@@H](CCN)C(=O)N[C@H]1CCNC(=O)[C@H]([C@@H](C)O)NC(=O)[C@H](CCN)NC(=O)[C@H](CCN)NC(=O)[C@H](CC(C)C)NC(=O)[C@@H](Cc2ccc(C)cc2)NC(=O)[C@H](CCN)NC1=O)[C@@H](C)O [Compound 26] (X2-[Dab]T[Dab][Dab][Dab][dPhe(4-Me)]L[Dab][Dab]T; lactam 4-C)

>  <MIC A. baumannii ATCC 19606 (µg/mL)>
0.5

$$$$
>  <Compound>
CCCC(=O)CC(=O)N[C@@H](CCN)C(=O)N[C@H](C(=O)N[C@@H](CCN)C(=O)N[C@H]1CCNC(=O)[C@H]([C@@H](C)O)NC(=O)[C@H](CCN)NC(=O)[C@H](CCN)NC(=O)[C@H](CC(C)C)NC(=O)[C@@H](Cc2ccccc2)NC(=O)[C@H](CCN)NC1=O)[C@@H](C)O [Compound 3] (X6-[Dab]T[Dab][Dab][Dab][dF]L[Dab][Dab]T; lactam 4-C)

>  <MIC A. baumannii ATCC 19606 (µg/mL)>
8

$$$$

Field: next compound
Case CC(C)CCCCC(=O)N[C@@H](CCN)C(=O)N[C@H](C(=O)N[C@@H](CCN)C(=O)N[C@H]1CCNC(=O)[C@H]([C@@H](C)O)NC(=O)[C@H](CCN)NC(=O)[C@H](CCN)NC(=O)[C@H](C(C)C)NC(=O)[C@@H](CC(C)C)NC(=O)[C@H](CCN)NC1=O)[C@@H](C)O [Compound 76] ({Heptanoyl(6-Me)}-[Dab]T[Dab][Dab][Dab][dL]V[Dab][Dab]T; lactam 4-C) , Acinetobacter baumannii ATCC 19606, MIC A. baumannii ATCC 19606 recorded as 1

---

Tested on: Klebsiella pneumoniae ATCC BAA-2146 (NDM-1)
Experiment: Antibacterial activity, MIC by dish double dilution method
Type: cell-based
Details: ATCC BAA-2146
Method: The minimum inhibitory concentration (MIC) was determined by means of dish double dilution method using a Multipoint inoculator according to the CLSI recommended method. […] Agar medium is melted, and then quantitatively injected into the dish containing the drug solution, and mixed. […]
Where a SMILES comes first, the peptide text is derived from it. Bridges are numbered along the chain shown (N, C = ends). [ ]: non-standard residue; d: D form. The star is where a group is joined. dPhe(4-CF3) = N[C@H](Cc1ccc(C(F)(F)F)cc1)C(=O)O; X2 = CC[C@H](C)CCCCC(=O)*; Octanoyl = CCCCCCCC(=O)*; Dab = NCC[C@H](N)C(=O)O
Endpoint label: MIC K. pneumoniae ATCC BAA-2146 (NDM-1)

Below, 2 molecules whose answers are already recorded.
>  <Molecule>
CC[C@H](C)CCCCC(=O)N[C@@H](CCN)C(=O)N[C@H](C(=O)N[C@@H](CCN)C(=O)N[C@H]1CCNC(=O)[C@H]([C@@H](C)O)NC(=O)[C@H](CCN)NC(=O)[C@H](CCN)NC(=O)[C@H](CC(C)C)NC(=O)[C@@H](Cc2ccc(C(F)(F)F)cc2)NC(=O)[C@H](CCN)NC1=O)[C@@H](C)O [Compound 23] (X2-[Dab]T[Dab][Dab][Dab][dPhe(4-CF3)]L[Dab][Dab]T; lactam 4-C)

>  <Test target>
Klebsiella pneumoniae ATCC BAA-2146 (NDM-1)

>  <MIC K. pneumoniae ATCC BAA-2146 (NDM-1)>
2 µg/mL

$$$$
>  <Molecule>
CC[C@H](C)CCCCC(=O)N[C@@H](CCN)C(=O)N[C@H](C(=O)N[C@@H](CCN)C(=O)N[C@H]1CCNC(=O)[C@H]([C@@H](C)O)NC(=O)[C@H](CCN)NC(=O)[C@H](CCN)NC(=O)[C@H](C(C)C)NC(=O)[C@@H](CC(C)C)NC(=O)[C@H](CCN)NC1=O)[C@@H](C)O [Compound 72] (X2-[Dab]T[Dab][Dab][Dab][dL]V[Dab][Dab]T; lactam 4-C)

>  <Test target>
Klebsiella pneumoniae ATCC BAA-2146 (NDM-1)

>  <MIC K. pneumoniae ATCC BAA-2146 (NDM-1)>
0.5 µg/mL

$$$$

Field: next molecule
Case CCCCCCCC(=O)N[C@@H](CCN)C(=O)N[C@H](C(=O)N[C@@H](CCN)C(=O)N[C@H]1CCNC(=O)[C@H]([C@@H](C)O)NC(=O)[C@H](CCN)NC(=O)[C@H](CCN)NC(=O)[C@H]([C@@H](C)CC)NC(=O)[C@@H](CC(C)C)NC(=O)[C@H](CCN)NC1=O)[C@@H](C)O [Compound 79] (Octanoyl-[Dab]T[Dab][Dab][Dab][dL]I[Dab][Dab]T; lactam 4-C) , Klebsiella pneumoniae ATCC BAA-2146 (NDM-1), MIC K. pneumoniae ATCC BAA-2146 (NDM-1) recorded as 1 µg/mL

---

assay: Nephrotoxicity test, renal cytotoxicity by MTT method; format: cell-based; details: African green monkey
Where a SMILES comes first, the peptide text is derived from it. Bridges are numbered along the chain shown (N, C = ends). [ ]: non-standard residue; d: D form. The star is where a group is joined. dPhe(4-CN) = N#Cc1ccc(C[C@@H](N)C(=O)O)cc1; Heptanoyl(6-Me) = CC(C)CCCCC(=O)*; X2 = CC[C@H](C)CCCCC(=O)*; dDab = NCC[C@@H](N)C(=O)O; Heptanoyl = CCCCCCC(=O)*; Dab = NCC[C@H](N)C(=O)O; X3 = CCCCC(=O)CC(=O)*
Endpoint label: IC50 at 72 h (µg/mL)
One number for each entry, in µg/mL.

>  <Compound>
CCCCCCC(=O)N[C@@H](CCN)C(=O)N[C@H](C(=O)N[C@@H](CCN)C(=O)N[C@H]1CCNC(=O)[C@H]([C@@H](C)O)NC(=O)[C@H](CCN)NC(=O)[C@H](CCN)NC(=O)[C@H](CC(C)C)NC(=O)[C@@H](CC(C)C)NC(=O)[C@H](CCN)NC1=O)[C@@H](C)O [Compound 82] (Heptanoyl-[Dab]T[Dab][Dab][Dab][dL]L[Dab][Dab]T; lactam 4-C)

>  <Reading unit>
µg/mL

>  <IC50 at 72 h>
216

$$$$
>  <Compound>
CC[C@H](C)CCCCC(=O)N[C@@H](CCN)C(=O)N[C@H](C(=O)N[C@H](CCN)C(=O)N[C@H]1CCNC(=O)[C@H]([C@@H](C)O)NC(=O)[C@H](CCN)NC(=O)[C@H](CCN)NC(=O)[C@H]([C@@H](C)O)NC(=O)[C@@H](Cc2ccccc2)NC(=O)[C@H](CCN)NC1=O)[C@@H](C)O [Compound 143] (X2-[Dab]T[dDab][Dab][Dab][dF]T[Dab][Dab]T; lactam 4-C)

>  <Reading unit>
µg/mL

>  <IC50 at 72 h>
142

$$$$
>  <Compound>
CC[C@H](C)CCCCC(=O)N[C@@H](CCN)C(=O)N[C@H](C(=O)N[C@@H](CCN)C(=O)N[C@H]1CCNC(=O)[C@H]([C@@H](C)O)NC(=O)[C@H](CCN)NC(=O)[C@H](CCN)NC(=O)[C@H](CC(C)C)NC(=O)[C@@H](Cc2ccc(C#N)cc2)NC(=O)[C@H](CCN)NC1=O)[C@@H](C)O [Compound 13] (X2-[Dab]T[Dab][Dab][Dab][dPhe(4-CN)]L[Dab][Dab]T; lactam 4-C)

>  <Reading unit>
µg/mL

>  <IC50 at 72 h>
186

$$$$
>  <Compound>
CC[C@H](C)CCCCC(=O)N[C@@H](CCN)C(=O)N[C@H](C(=O)N[C@H](CCN)C(=O)N[C@H]1CCNC(=O)[C@H]([C@@H](C)O)NC(=O)[C@H](CCN)NC(=O)[C@H](CCN)NC(=O)[C@H]([C@@H](C)O)NC(=O)[C@@H](CC(C)C)NC(=O)[C@H](CCN)NC1=O)[C@@H](C)O [Compound 30] (X2-[Dab]T[dDab][Dab][Dab][dL]T[Dab][Dab]T; lactam 4-C)

>  <Reading unit>
µg/mL

>  <IC50 at 72 h>
145

$$$$
>  <Compound>
CC(C)CCCCC(=O)N[C@@H](CCN)C(=O)N[C@H](C(=O)N[C@@H](CCN)C(=O)N[C@H]1CCNC(=O)[C@H]([C@@H](C)O)NC(=O)[C@H](CCN)NC(=O)[C@H](CCN)NC(=O)[C@H](CC(C)C)NC(=O)[C@@H](Cc2ccccc2)NC(=O)[C@H](CCN)NC1=O)[C@@H](C)O [Compound 43] ({Heptanoyl(6-Me)}-[Dab]T[Dab][Dab][Dab][dF]L[Dab][Dab]T; lactam 4-C)

>  <Reading unit>
µg/mL

>  <IC50 at 72 h>
159

$$$$

The reported value for CCCCC(=O)CC(=O)N[C@@H](CCN)C(=O)N[C@H](C(=O)N[C@@H](CCN)C(=O)N[C@H]1CCNC(=O)[C@H]([C@@H](C)O)NC(=O)[C@H](CCN)NC(=O)[C@H](CCN)NC(=O)[C@H](CC(C)C)NC(=O)[C@@H](Cc2ccccc2)NC(=O)[C@H](CCN)NC1=O)[C@@H](C)O [Compound 4] (X3-[Dab]T[Dab][Dab][Dab][dF]L[Dab][Dab]T; lactam 4-C) in terms of IC50 at 72 h is 110
